// provenance: the Immune Epitope Database (IEDB)

# TEST SYSTEM: HLA-B*27:05
# ASSAY METHOD TEXT: IEDB peptide-MHC binding, purified MHC/competitive/fluorescence; filed as Kd, often an IC50 or EC50 that approximates it; bounds were set here for any values at or beyond the usual limits of such assays
# TEST CONTEXT: source organism: Entamoeba dispar SAW760
pKd: −log10 of the molar value.
OBSERVABLE: pKd

Ask: Name the value of pKd reported for SQYDPKELL when tested on HLA-B*27:05.
Result: ≤ 5.30

* * *

# TEST SYSTEM: HLA-A*02:01
# ASSAY METHOD TEXT: IEDB peptide-MHC binding, purified MHC/competitive/radioactivity; filed as Kd, often an IC50 or EC50 that approximates it; bounds were set here for any values at or beyond the usual limits of such assays
# TEST CONTEXT: source organism: Human immunodeficiency virus 1
OBSERVABLE: pKd
Please treat pKd as minus the base-10 logarithm of the molar concentration.

Ask: Give the reported pKd for this sequence. LLNATDIAVA
Result: 6.37

* * *

# TEST SYSTEM: HLA-A*31:01
# ASSAY METHOD TEXT: IEDB peptide-MHC binding, purified MHC/direct/fluorescence; filed as Kd, often an IC50 or EC50 that approximates it; bounds were set here for any values at or beyond the usual limits of such assays
# TEST CONTEXT: source organism: Camelpox virus M-96
pKd: −log10 of the molar value.
OBSERVABLE: pKd

Ask: Output reported pKd of the sequence ETIEILRNY on HLA-A*31:01.
Result: ≤ 4.70

Ask: Quote HLA-A*31:01 pKd for entry IFLIITKVF .
Result: ≤ 4.70

* * *

# TEST SYSTEM: HLA-B*07:02
# ASSAY METHOD TEXT: IEDB peptide-MHC binding, purified MHC/direct/fluorescence; filed as Kd, often an IC50 or EC50 that approximates it; bounds were set here for any values at or beyond the usual limits of such assays
# TEST CONTEXT: source organism: Marburg virus - Musoke, Kenya, 1980
OBSERVABLE: Kd

Ask: Specify the recorded Kd for YLAPSYRNF , system: HLA-B*07:02.
Result: ≥ 20 µM

* * *

# TEST SYSTEM: HLA-A*30:02
# ASSAY METHOD TEXT: IEDB peptide-MHC binding, purified MHC/competitive/radioactivity; filed as Kd, often an IC50 or EC50 that approximates it; bounds were set here for any values at or beyond the usual limits of such assays
# TEST CONTEXT: source organism: SARS coronavirus Tor2
Catalogue of sequences with associated pKd
// pKd here means minus log10 of the molar concentration (mol/L)

# annotated cases, reported pKd shown
Ask: Using known records, supply pKd for PFWITAIYVF
Result: 4.80

Ask: Quote pKd reported for WFSQRGGSY please.
Result: 7.96

Ask: Using known records, supply pKd for AYSFLPGVY
Result: 9.57

Ask: Please give the documented pKd of DYDCVSFCY
Result: 5.85

Ask: Return the recorded pKd value; entry: SGALDTTSY
Result: 7.68

Note: attention shifts to another entry.
Ask: Fill in reported pKd for this entry: SSPDAVTTY
Result: 5.48

* * *

# TEST SYSTEM: HLA-B*48:01
# ASSAY METHOD TEXT: IEDB peptide-MHC binding, purified MHC/direct/fluorescence; filed as Kd, often an IC50 or EC50 that approximates it; bounds were set here for any values at or beyond the usual limits of such assays
# TEST CONTEXT: source organism: Coxiella burnetii
OBSERVABLE: Kd

Ask: Specify Kd for VFFKQWFEK and stop.
Result: ≥ 20 µM

* * *

# TEST SYSTEM: HLA-C*12:03
# ASSAY METHOD TEXT: IEDB peptide-MHC binding, purified MHC/direct/fluorescence; filed as Kd, often an IC50 or EC50 that approximates it; bounds were set here for any values at or beyond the usual limits of such assays
# TEST CONTEXT: source organism: Hepatovirus A
OBSERVABLE: Kd
Be sure to follow the number with its unit.

Ask: # assay system HLA-C*12:03: give Kd of YMYAVSGAL
Result: 231 nM

* * *

# TEST SYSTEM: HLA-C*07:02
# ASSAY METHOD TEXT: IEDB peptide-MHC binding, purified MHC/direct/fluorescence; filed as Kd, often an IC50 or EC50 that approximates it; bounds were set here for any values at or beyond the usual limits of such assays
# TEST CONTEXT: source organism: Canis lupus familiaris
OBSERVABLE: pKd
To interpret pKd, take it as minus log10 of a concentration measured in moles per litre.

Ask: Identify pKd associated with the sequence HYNAFHWAI
Result: 7.33

* * *

# TEST SYSTEM: HLA-A*33:01
# ASSAY METHOD TEXT: IEDB peptide-MHC binding, purified MHC/competitive/radioactivity; filed as Kd, often an IC50 or EC50 that approximates it; bounds were set here for any values at or beyond the usual limits of such assays
# TEST CONTEXT: source organism: Mammarenavirus machupoense
OBSERVABLE: Kd (nM)
Respond with the bare value in nM.

Ask: For YVNHTLTGQH , write its Kd.
Result: 29.5

* * *

# TEST SYSTEM: HLA-A*03:01
# ASSAY METHOD TEXT: IEDB peptide-MHC binding, purified MHC/competitive/fluorescence; filed as Kd, often an IC50 or EC50 that approximates it; bounds were set here for any values at or beyond the usual limits of such assays
# TEST CONTEXT: source organism: Yersinia pestis Antiqua
OBSERVABLE: Kd (nM)
Respond numerically; units are nM and should not be typed.

Ask: Complete the entry with Kd for QLAFFVAGH
Result: 198

* * *

# TEST SYSTEM: HLA-A*30:01
# ASSAY METHOD TEXT: IEDB peptide-MHC binding, purified MHC/competitive/radioactivity; filed as Kd, often an IC50 or EC50 that approximates it; bounds were set here for any values at or beyond the usual limits of such assays
# TEST CONTEXT: source organism: Vaccinia virus WR
The entries below are paired with their reported pKd.
Answer as the number alone; pKd is minus log10 of concentration in mol/L.

Ask: Note pKd for the sequence shown: RLKSAVCYK
Result: 9.76

Ask: Please give the documented pKd of HLIIQYPSV
Result: 6.79

Ask: Specify measured pKd for GAKIGCINV .
Result: 8.04

Ask: State, in one line, measured pKd of RVLLLTPEV
Result: 7.31

***
Ask: Query pKd for GLRNSLLVA
Result: 7.03

Ask: Fill in reported pKd for this entry: RTKFQNRAK
Result: 9.80

Ask: In one line, give reported pKd of the entry KGRISYYEM .
Result: 7.84

Ask: Please look at this sequence and report its pKd: KMTRVFNKF
Result: 4.82

Ask: Give the reported pKd for this sequence. HTSARLHSL
Result: 8.38

Ask: # return recorded pKd for entry HSRASPRIG
Result: 9.03

Ask: Find the measured pKd of AGRLVRPFL and report it.
Result: 6.60

Ask: Determine from records and report pKd for KTLAPFNFL
Result: 7.82

Ask: Give pKd for RARYKKMLK
Result: 8.98

Ask: Check the records and state pKd for KISISYIKL
Result: 6.53

* * *

# TEST SYSTEM: HLA-B*40:02
# ASSAY METHOD TEXT: IEDB peptide-MHC binding, purified MHC/competitive/radioactivity; filed as Kd, often an IC50 or EC50 that approximates it; bounds were set here for any values at or beyond the usual limits of such assays
# TEST CONTEXT: source organism: Mammarenavirus guanaritoense
OBSERVABLE: Kd (nM)
The reply should contain only the number, in nM.

Ask: GET Kd where system = HLA-B*40:02 and item = AEFTFQLNL
Result: 0.946

* * *

# TEST SYSTEM: HLA-B*35:01
# ASSAY METHOD TEXT: IEDB peptide-MHC binding, purified MHC/direct/fluorescence; filed as Kd, often an IC50 or EC50 that approximates it; bounds were set here for any values at or beyond the usual limits of such assays
# TEST CONTEXT: source organism: Hepatovirus A
OBSERVABLE: pKd
On this scale, pKd is minus log10 of a concentration expressed in M (mol/L).

Ask: Report pKd for YMYAVSGAL
Result: 6.35

* * *

# TEST SYSTEM: HLA-B*40:01
# ASSAY METHOD TEXT: IEDB peptide-MHC binding, purified MHC/direct/fluorescence; filed as Kd, often an IC50 or EC50 that approximates it; bounds were set here for any values at or beyond the usual limits of such assays
# TEST CONTEXT: source organism: Mycobacterium tuberculosis
OBSERVABLE: Kd

Ask: Give the reported Kd for this sequence. TLLESFLFY
Result: ≥ 20 µM

Ask: Please give measured Kd of the following entry: GPRGRHVVL
Result: ≥ 20 µM

***
Ask: For the sequence ALYLLDGLR , give its reported Kd.
Result: ≥ 20 µM
